Assayed system: UniProt E1BN64
Sequence (E1BN64 1-1115): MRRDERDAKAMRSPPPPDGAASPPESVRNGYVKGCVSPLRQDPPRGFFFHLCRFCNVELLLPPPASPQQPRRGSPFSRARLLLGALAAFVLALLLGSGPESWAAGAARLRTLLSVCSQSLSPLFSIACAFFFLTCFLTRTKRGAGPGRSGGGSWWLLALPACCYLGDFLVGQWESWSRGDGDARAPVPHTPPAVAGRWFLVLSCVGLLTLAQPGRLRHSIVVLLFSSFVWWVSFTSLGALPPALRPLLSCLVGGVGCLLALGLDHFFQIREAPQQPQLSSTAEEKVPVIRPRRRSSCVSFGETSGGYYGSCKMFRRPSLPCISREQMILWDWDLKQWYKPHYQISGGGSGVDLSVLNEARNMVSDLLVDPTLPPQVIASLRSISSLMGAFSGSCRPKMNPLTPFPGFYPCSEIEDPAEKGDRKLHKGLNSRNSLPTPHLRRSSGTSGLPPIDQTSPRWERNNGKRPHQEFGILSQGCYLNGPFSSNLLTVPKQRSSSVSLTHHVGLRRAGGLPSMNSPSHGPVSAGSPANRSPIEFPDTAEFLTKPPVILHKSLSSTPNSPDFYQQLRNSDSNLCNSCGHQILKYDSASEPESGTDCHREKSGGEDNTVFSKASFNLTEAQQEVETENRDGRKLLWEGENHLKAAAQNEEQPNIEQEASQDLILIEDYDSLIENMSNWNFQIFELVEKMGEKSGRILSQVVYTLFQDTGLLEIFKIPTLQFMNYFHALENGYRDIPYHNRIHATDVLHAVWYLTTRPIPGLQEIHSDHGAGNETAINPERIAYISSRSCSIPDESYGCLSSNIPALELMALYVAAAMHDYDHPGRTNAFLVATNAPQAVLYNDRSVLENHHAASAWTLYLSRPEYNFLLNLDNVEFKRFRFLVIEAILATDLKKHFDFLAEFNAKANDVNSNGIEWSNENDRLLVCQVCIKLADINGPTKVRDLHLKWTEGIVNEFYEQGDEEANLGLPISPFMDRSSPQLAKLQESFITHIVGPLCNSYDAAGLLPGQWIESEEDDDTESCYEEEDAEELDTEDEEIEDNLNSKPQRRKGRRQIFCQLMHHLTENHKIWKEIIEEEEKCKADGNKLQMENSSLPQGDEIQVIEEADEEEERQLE
Assay text: In vitro inhibition of Phosphodiesterase isolated from bovine heart.
For each record, write down the corresponding Inhibitory activity.
Answers are plain numbers.

Check out these entries, answers already filled in.
> print(dat)
                         molecule.smiles             endpoint  quantitative.readout
1         Cc1cc(Cl)n2nc(SCc3ccccc3)nc2n1  Inhibitory activity                   0.5
2    CCN(CC)c1cc(C)nc2nc(SCc3ccccc3)nn12  Inhibitory activity                     8
3       Cc1ccc(CSc2nc3nc(C)cc(C)n3n2)cc1  Inhibitory activity                   9.4
4          Cc1cc(C)n2nc(SCc3ccccc3)nc2n1  Inhibitory activity                   2.5
5                CCCSc1nc2nc(C)cc(C)n2n1  Inhibitory activity                   0.9
6  Cc1cc(C)n2nc(SCc3ccc(C(=O)O)cc3)nc2n1  Inhibitory activity                  0.66

Would you mind giving Inhibitory activity for every compound in the list below?
1. Cc1cc(C)n2nc(SCc3cccnc3)nc2n1
2. CCCNc1cc(C)nc2nc(SCc3ccccc3)nn12
3. Cc1cc(C)n2nc(SCc3ccc(Cl)cc3)nc2n1
4. Cc1cc(C)n2nc(SCc3ccncc3)nc2n1

Reply text:
1: 4.2; 2: 2; 3: 5.4; 4: 6.3
